test system: NCI-H2461 (Mesothelioma); experiment: combination Emax (second highest fraction inhibited in the dose matrix, 72 h); higher = more inhibition; extreme values may be limits of the assay
Assignment: determine reported combination Emax for the given compounds.
Answers are plain numbers.

Compound	Measured Parameter	Number
CC1(C)CCC(CN2CCN(c3ccc(C(=O)NS(=O)(=O)c4ccc(NCC5CCOCC5)c([N+](=O)[O-])c4)c(Oc4cnc5[nH]ccc5c4)c3)CC2)=C(c2ccc(Cl)cc2)C1 [Venetoclax] + C[C@@H](Nc1cc(F)cc(F)c1)c1cc(C(=O)N(C)C)cc2c(=O)cc(N3CCOCC3)oc12 [AZD8186] (first compound max 1 µM, 7x7, partner max 3 µM)	combination Emax	0.447

Consider now this further compound.
input: State its combination Emax: C=CCn1c(=O)c2cnc(Nc3ccc(N4CCN(C)CC4)cc3)nc2n1-c1cccc(C(C)(C)O)n1 [AZD1775] + Nc1ccn([C@@H]2O[C@H](CO)[C@@H](O)C2(F)F)c(=O)n1 [Gemcitabine] (first compound max 1 µM, partner max 0.3 µM)
output: 0.63

---

Kindly state combination Emax for each of the entries shown.
system: KYSE-410 (Esophageal Squamous Cell Carcinoma); assay: combination Emax (second highest fraction inhibited in the dose matrix, 72 h); higher = more inhibition; extreme values may be limits of the assay

Molecule	Result
CCN(CCO)CCCOc1ccc2c(Nc3cc(CC(=O)Nc4cccc(F)c4)[nH]n3)ncnc2c1 [AZD2811] + C=CCn1c(=O)c2cnc(Nc3ccc(N4CCN(C)CC4)cc3)nc2n1-c1cccc(C(C)(C)O)n1 [AZD1775] (first compound max 1 µM, partner max 1 µM)	0.267

Consider the record given below.
input: Indicate the recorded combination Emax value for this molecule: COc1cc2c(cc1OCCCCCOc1cc3c(cc1OC)C(=O)N1C=C(C)C[C@H]1C=N3)N=C[C@@H]1CC(C)=CN1C2=O [SG3199] + O=C(c1cc(Cc2n[nH]c(=O)c3ccccc23)ccc1F)N1CCN(C(=O)C2CC2)CC1 [Olaparib] (first compound max 0.001 µM, 7x7, partner max 10 µM)
output: 0.136

---

tested on: HMV-II (Melanoma); test: Bliss excess, mean over the matrix (fraction); higher = more synergy
Measured Parameter: Bliss excess
Answers are plain numbers.

Compound	Number
COc1nnc2ccc(N3CCC(c4ccc(OCCN5CCN(C)C(=O)[C@H]5C)cc4)CC3)nn12 [AZD5153] + CCN(CCO)CCCOc1ccc2c(Nc3cc(CC(=O)Nc4cccc(F)c4)[nH]n3)ncnc2c1 [AZD2811] (first compound max 1 µM, 7x7, partner max 1 µM)	-0.0481
CC1(C)CCC(CN2CCN(c3ccc(C(=O)NS(=O)(=O)c4ccc(NCC5CCOCC5)c([N+](=O)[O-])c4)c(Oc4cnc5[nH]ccc5c4)c3)CC2)=C(c2ccc(Cl)cc2)C1 [Venetoclax] + C=CCn1c(=O)c2cnc(Nc3ccc(N4CCN(C)CC4)cc3)nc2n1-c1cccc(C(C)(C)O)n1 [AZD1775] (first compound max 1 µM, partner max 1 µM)	-0.0542
C=CCn1c(=O)c2cnc(Nc3ccc(N4CCN(C)CC4)cc3)nc2n1-c1cccc(C(C)(C)O)n1 [AZD1775] + Nc1ccn([C@@H]2O[C@H](CO)[C@@H](O)C2(F)F)c(=O)n1 [Gemcitabine] (first compound max 1 µM, partner max 0.3 µM)	-0.0355
CN(CCO)CC[C@H](CSc1ccccc1)Nc1ccc(S(=O)(=O)NC(=O)c2ccc(N3CCC([C@@H](O)c4ccccc4-c4ccc(Cl)cc4)CC3)cc2)cc1S(=O)(=O)C(F)(F)F [AZD4320] + CS(=O)(=O)CCNCc1ccc(-c2ccc3ncnc(Nc4ccc(OCc5cccc(F)c5)c(Cl)c4)c3c2)o1 [Lapatinib] (first compound max 1 µM, 7x7, partner max 10 µM)	-0.0663
Cc1c2c(nn1C)CSCc1cc(n(C)n1)CSc1cc(c3ccccc3c1)OCCCc1c(C(=O)O)n(C)c3c-2c(Cl)ccc13 [AZD5991] + CC(=O)O[C@H]1C(=O)[C@@]2(C)[C@H]([C@H](OC(=O)c3ccccc3)[C@]3(O)C[C@H](OC(=O)[C@H](O)[C@@H](NC(=O)c4ccccc4)c4ccccc4)C(C)=C1C3(C)C)[C@]1(OC(C)=O)CO[C@@H]1C[C@@H]2O [Paclitaxel] (first compound max 1 µM, 7x7, partner max 3 µM)	0.0547

I would be grateful if you could provide Bliss excess for each of the following entries.
1. NC1(C(=O)N[C@@H](CCO)c2ccc(Cl)cc2)CCN(c2ncnc3[nH]ccc23)CC1 [Capivasertib] + CC(=O)c1c(C)c2cnc(Nc3ccc(N4CCNCC4)cn3)nc2n(C2CCCC2)c1=O [Palbociclib] (first compound max 10 µM, 7x7, partner max 10 µM)
2. Cc1c2c(nn1C)CSCc1cc(n(C)n1)CSc1cc(c3ccccc3c1)OCCCc1c(C(=O)O)n(C)c3c-2c(Cl)ccc13 [AZD5991] + CC1(C)CCC(CN2CCN(c3ccc(C(=O)NS(=O)(=O)c4ccc(NCC5CCOCC5)c([N+](=O)[O-])c4)c(Oc4cnc5[nH]ccc5c4)c3)CC2)=C(c2ccc(Cl)cc2)C1 [Venetoclax] (first compound max 1 µM, 7x7, partner max 1 µM)
3. CCN(CCO)CCCOc1ccc2c(Nc3cc(CC(=O)Nc4cccc(F)c4)[nH]n3)ncnc2c1 [AZD2811] + C=CCn1c(=O)c2cnc(Nc3ccc(N4CCN(C)CC4)cc3)nc2n1-c1cccc(C(C)(C)O)n1 [AZD1775] (first compound max 1 µM, partner max 1 µM)

output:
1. -0.0138
2. -0.0257
3. -0.0339

Please state Bliss excess for every compound in the list that follows.
1. CCN(CCO)CCCOc1ccc2c(Nc3cc(CC(=O)Nc4cccc(F)c4)[nH]n3)ncnc2c1 [AZD2811] + C[C@@H]1COCCN1C2=NC(=NC(=C2)C3(CC3)[S@](=N)(=O)C)C4=C5C=CNC5=NC=C4 [AZD6738] (first compound max 1 µM, 7x7, partner max 10 µM)
2. Cc1cc2ncnn2cc1Nc1ncc2c(n1)n(C1CCOCC1)c(=O)n2C [AZD7648] + O=C(c1cc(Cc2n[nH]c(=O)c3ccccc23)ccc1F)N1CCN(C(=O)C2CC2)CC1 [Olaparib] (first compound max 10 µM, 7x7, partner max 10 µM)
3. CN(CCO)CC[C@H](CSc1ccccc1)Nc1ccc(S(=O)(=O)NC(=O)c2ccc(N3CCC([C@@H](O)c4ccccc4-c4ccc(Cl)cc4)CC3)cc2)cc1S(=O)(=O)C(F)(F)F [AZD4320] + CCN(CCO)CCCOc1ccc2c(Nc3cc(CC(=O)Nc4cccc(F)c4)[nH]n3)ncnc2c1 [AZD2811] (first compound max 1 µM, 7x7, partner max 1 µM)
4. Cc1c2c(nn1C)CSCc1cc(n(C)n1)CSc1cc(c3ccccc3c1)OCCCc1c(C(=O)O)n(C)c3c-2c(Cl)ccc13 [AZD5991] + C[C@@H]1COCCN1C2=NC(=NC(=C2)C3(CC3)[S@](=N)(=O)C)C4=C5C=CNC5=NC=C4 [AZD6738] (first compound max 1 µM, 7x7, partner max 10 µM)

output:
[-0.0395, -0.0181, -0.0357, -0.0496]

---

So I've got a bunch of molecules here, and I need their Bliss excess values.
tested on: KYSE-410 (Esophageal Squamous Cell Carcinoma); test: Bliss excess, mean over the matrix (fraction); higher = more synergy

Below, each entry is followed by its recorded Bliss excess result.
Molecule	Target Or System	Bliss excess
CS(=O)(=O)CCNCc1ccc(-c2ccc3ncnc(Nc4ccc(OCc5cccc(F)c5)c(Cl)c4)c3c2)o1 [Lapatinib] + C[C@@H](Oc1cc(-c2cnn(C3CCNCC3)c2)cnc1N)c1c(Cl)ccc(F)c1Cl [Crizotinib] (first compound max 10 µM, 7x7, partner max 10 µM)	KYSE-410 (Esophageal Squamous Cell Carcinoma)	-0.0183
CCc1c2c(nc3ccc(O)cc13)-c1cc3c(c(=O)n1C2)COC(=O)[C@]3(O)CC [SN-38] + O=C(c1cc(Cc2n[nH]c(=O)c3ccccc23)ccc1F)N1CCN(C(=O)C2CC2)CC1 [Olaparib] (first compound max 0.3 µM, 7x7, partner max 10 µM)	KYSE-410 (Esophageal Squamous Cell Carcinoma)	0.0014
CN(C)CCCOc1ccc(-c2ccc3ncc4c(c3c2)n(C2CCOCC2)c(=O)n4C)cn1 [AZD0156] + C=CCn1c(=O)c2cnc(Nc3ccc(N4CCN(C)CC4)cc3)nc2n1-c1cccc(C(C)(C)O)n1 [AZD1775] (first compound max 1 µM, partner max 1 µM)	KYSE-410 (Esophageal Squamous Cell Carcinoma)	-0.0464
NC1(C(=O)N[C@@H](CCO)c2ccc(Cl)cc2)CCN(c2ncnc3[nH]ccc23)CC1 [Capivasertib] + Cn1cnc2c(F)c(Nc3ccc(Br)cc3Cl)c(C(=O)NOCCO)cc21 [Selumetinib] (first compound max 10 µM, 7x7, partner max 10 µM)	KYSE-410 (Esophageal Squamous Cell Carcinoma)	0.0521
C=CCn1c(=O)c2cnc(Nc3ccc(N4CCN(C)CC4)cc3)nc2n1-c1cccc(C(C)(C)O)n1 [AZD1775] + C1CN(CCC1(C(=O)N[C@@H](CCO)C2=CC=C(C=C2)Cl)N)C3=NC=NC4=C3C=CN4 [Capivasertib] (first compound max 3 µM, partner max 3 µM)	KYSE-410 (Esophageal Squamous Cell Carcinoma)	-0.0015

For each of the molecules below, state Bliss excess.
1. Cc1c2c(nn1C)CSCc1cc(n(C)n1)CSc1cc(c3ccccc3c1)OCCCc1c(C(=O)O)n(C)c3c-2c(Cl)ccc13 [AZD5991] + CN(C)CCCOc1ccc(-c2ccc3ncc4c(c3c2)n(C2CCOCC2)c(=O)n4C)cn1 [AZD0156] (first compound max 1 µM, 7x7, partner max 1 µM)
2. Cc1c2c(nn1C)CSCc1cc(n(C)n1)CSc1cc(c3ccccc3c1)OCCCc1c(C(=O)O)n(C)c3c-2c(Cl)ccc13 [AZD5991] + C[C@@H]1COCCN1C2=NC(=NC(=C2)C3(CC3)[S@](=N)(=O)C)C4=C5C=CNC5=NC=C4 [AZD6738] (first compound max 1 µM, 7x7, partner max 10 µM)

output:
-0.028
0.0281
